# reported % Inhibition at 100 nM antibody, in the presence of 100 ρM Apelin (at 5 µM Forskolin); entries follow
# target of assay: T1, full-length human APLNR (human, UniProt P35414 1-380)
# T1 sequence: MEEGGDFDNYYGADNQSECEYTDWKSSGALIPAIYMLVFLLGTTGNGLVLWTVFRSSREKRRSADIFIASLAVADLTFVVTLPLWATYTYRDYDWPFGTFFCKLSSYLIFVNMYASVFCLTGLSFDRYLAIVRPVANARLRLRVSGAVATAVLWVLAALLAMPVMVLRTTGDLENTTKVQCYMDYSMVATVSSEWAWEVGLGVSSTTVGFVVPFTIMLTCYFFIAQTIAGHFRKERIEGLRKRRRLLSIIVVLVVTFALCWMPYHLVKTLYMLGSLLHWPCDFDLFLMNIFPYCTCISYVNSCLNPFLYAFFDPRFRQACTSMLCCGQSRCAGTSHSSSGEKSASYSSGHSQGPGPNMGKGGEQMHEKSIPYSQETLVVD
# measurement description: cell-based or functional assay
A number alone suffices; assume %.

{"binder": "H2aM9230N (antibody, V domains shown, Human variable domains, mouse IgG2a Fc) VH: EVQLVESGGGLVQPGGSLRLSCAASGFTFSSFWMSWVRQVPGKGLQWVANIKQDGSEKYYVDSVKGRFTISRDNAKNSLYLQMNSLRAEDTAVYYCARDRFGYSVYDKGVRYYYGMDVWGQGTTVTVSS VL: DIQMTQSPSSLSVSVGDRVTITCRASQGIRNDLGWYQQKPGKAPKRLIYAASSLQSGVPSRFSGSGSGTEFTLTISGLQSEDFATYYCLQHKSYPRTFGQGTKVEIK", "readout units": "%", "observed": 49}

Inquiry: What value of % Inhibition at 100 nM antibody, in the presence of 100 ρM Apelin (at 5 µM Forskolin) has been reported for the following binder? H1M9207N (antibody, V domains shown, Human variable domains, mouse IgG1 Fc (H1M prefix)) VH: EVQLVESGGGLAQPGGSLRLSCAASGFTFSNYWMSWVRQAPGKGLEWVANIKQDGSEKYYLESVKGRFTISRDNAKNLLYLQMNSLRAEDTAVFYCARPGLLRFLEPGRRYYSGMNVWGQGTTVTVSS VL: DIQLTQSPSFLSASVGDRVTITCWASQGIRSYLAWYQQKPGKAPKLLIYAASTLQSGVPSRFSGSGSGTEFTLTISSLQPEDFATYYCQQFNSYPWTFGQGTKVEIK
Reply text: 83

Inquiry: What value of % Inhibition at 100 nM antibody, in the presence of 100 ρM Apelin (at 5 µM Forskolin) has been reported for the following binder? H2aM9232N (antibody, V domains shown, Human variable domains, mouse IgG2a Fc) VH: QVKLVESGGGVVQPGRSLRLSCAASGFTFSNYVIHWVRQAPGKGLEWVAVIWYDGSNKYYADSVKGRFTISRDNSKNTLYLQMNSLRAEDTAVYYCARDRVVRGVDYYYYYGLDVWGQGTSVTVSS VL: EIVMTQSPATLSVSPGERATLSCRASQSVRSNLAWYQQKPGQAPRLLIYGASSRATGIPARFSGTGSGTEFTLTISSLQSDDFAVYYCQQYNKWPRTFGQGTKVEIK
Reply text: 98
